Tested on: HCT-116 colon
METHOD DESCRIPTION: NCI tumour cell line growth inhibition, 48 h
Some molecules, each annotated with its measured TGI.
MEASURE: TGI

molecule=COc1ccc(N(/C=C/C(=O)C(F)(F)F)CC(=O)c2ccc(Cl)cc2)cc1 result="26.6 µM"
molecule=COc1ccc(Cn2cc3c(c2-c2ccccc2)CCc2cnoc2-3)cc1N result="> 33.9 µM"
molecule=COc1ccc(C(=O)N/N=C/c2c(C)n(C)n(-c3ccccc3)c2=O)cc1 result="> 100 µM"
molecule="c1ccc([As]=[As]c2ccccc2)cc1 (stereo not given)" result="3.7 µM"
molecule=O=C(Nc1cc(Oc2cc(F)c(NC(=O)C3(C(=O)Nc4ccc(F)cc4)CC3)cc2F)ccn1)C1CC1 result="> 100 µM"
molecule="CC12CCC3c4cc(Br)c(O)c(Br)c4CCC3C1CCC2O (stereo not given)" result="> 100 µM"
molecule=NC(=Nc1ccc(N)cc1)C(N)=Nc1ccc(N)cc1 result="> 100 µM"
molecule="C=CCOC(=O)C1CCC(=O)N1C(=O)C(Cl)Cl (stereo not given)" result="> 100 µM"
molecule=C#CCN(C(=O)C(F)(F)F)c1ccc(C(=O)c2ccc(N(CC#C)C(=O)C(F)(F)F)cc2)cc1 result="> 100 µM"
molecule=O=C(Nc1nnc(-c2c(Cl)c(Cl)c(Cl)c(Cl)c2-c2nc3cc(C(=O)c4ccccc4)ccc3[nH]2)o1)c1ccc(Cl)cc1 result="> 100 µM"

----------
Test system: KM12 colon
METHOD DESCRIPTION: NCI tumour cell line growth inhibition, 48 h
MEASURE: TGI (µM)

molecule=C#COc1cccc(Nc2ncnc3cc(NC(=O)[C@H](C)Cl)ccc23)c1 value_modifier=> quantitative_result=62.5
molecule=Cc1ccc(-c2nc([P+](c3ccccc3)(c3ccccc3)c3ccccc3)c(Nc3ccccc3)o2)cc1 value_modifier== quantitative_result=1.83
molecule=COc1cc2ccc1OCc1cccc(n1)COc1ccc(cc1OC)C=NCCNCCNCCN=C2 value_modifier=> quantitative_result=100
molecule=O=C(CC(=O)c1cccc(Cl)c1)c1cccc(Cl)c1 value_modifier=> quantitative_result=100
molecule=O=c1cc(-c2ccccc2)oc2cc(OC/C(=N/O)c3ccc(F)cc3)ccc12 value_modifier== quantitative_result=29.2
molecule=O=C(NCc1ccco1)c1cccc(NC2=C(Cl)C(=O)N(Cc3ccccc3)C2=O)c1 value_modifier== quantitative_result=24.5
molecule=Cc1ccc(-c2nc(-c3cn(C)c4ncccc34)cs2)cc1 value_modifier== quantitative_result=14
molecule=COc1cc(NC=C2C(=O)OC(C)(C)OC2=O)c(OC)c(C)c1OC value_modifier=> quantitative_result=100
molecule=C=C(C)C(=O)O[C@@H]1C/C(C)=C\[C@H](OC(C)=O)C[C@](C)(O)/C=C2/OC(=O)C(COC(C)=O)=C21 value_modifier== quantitative_result=23.5
molecule=COc1cc(/C=C/c2cc(/C=C/c3ccc(O)c(OC)c3)n(C(=O)Nc3ccc(Cl)cc3)n2)ccc1O value_modifier== quantitative_result=1.84
molecule=O=[N+]([O-])/C(C(Cl)=C(Cl)Cl)=C(\N1CCCCC1)n1nnc2ccccc21 value_modifier=> quantitative_result=88
molecule=Cc1ccc2[nH]c3[nH]c(=S)[nH]c(=O)c3c2c1 value_modifier=> quantitative_result=100
molecule="CC1CN=C(c2cccc(-c3nc(-c4cccc(C5=NCC(C)N5)c4)nc(N(C)C)n3)c2)N1 (stereo not drawn)" value_modifier== quantitative_result=7.72
molecule="CCOC(=O)C(CNc1ccc(O)cc1)NC(=O)c1ccccc1 (stereo not drawn)" value_modifier=> quantitative_result=100
molecule=CCOC(=O)c1cnn2c3ccccc3n(S(=O)(=O)c3ccc(OC)cc3)c12 value_modifier== quantitative_result=21.9
molecule=CO[C@@H]1C[C@H](OC(N)=O)[C@@H]2C=C[C@@H]3/C=C(C)/C=C/[C@@H](C)[C@H](/C(C)=C/[C@@H](C)NC(C)=O)OC(=O)/C=C/C=C(C)\C=C\[C@]3(C)[C@@H]2C1 value_modifier== quantitative_result=0.163
molecule=CCOC(=O)c1ccc2c(c1)[n+](=O)c(C(C)=O)c(C(F)(F)F)n2[O-] value_modifier== quantitative_result=2.89
molecule="COC(=O)[C@@H]1CC(C(CN)c2cn(C(=O)OC(C)(C)C)c3ccccc23)C(=O)N1C(=O)OC(C)(C)C (stereo partly drawn)" value_modifier=> quantitative_result=100
molecule="COC1C2c3cc4c(cc3CC(C#N)(c3ccccc32)N1C(=O)c1ccccc1)OCO4 (stereo not drawn)" value_modifier=> quantitative_result=100
molecule=Cc1cc(=O)[nH]c(CNC(=O)c2cccc(C(=O)NCc3cc(=O)[nH]c(C)n3)c2)n1 value_modifier=> quantitative_result=100
molecule=COP(=O)(OC)/C(=C/c1cn(C(c2ccccc2)(c2ccccc2)c2ccccc2)cn1)NC=O value_modifier=> quantitative_result=100
molecule="C=CCCCCOC1C=CC(O)C(CO)O1 (stereo not drawn)" value_modifier=> quantitative_result=100
molecule=CCN(CC)c1ccc2cc(C(=O)Nc3ccc(C)cc3)c(=N)oc2c1 value_modifier=> quantitative_result=100
